Test: yeast display, Sf9 membrane polyspecificity reagent, FACS + sequencing; frameworks hold sequencing errors
MEASURED_PARAMETER: polyreactivity (PSR sort gate)

Worked set:
Prompt: # lookup: polyreactivity (PSR sort gate) of QVQILESGGWLVQAGGSLRLSCASSGRTFDVYAMGWYRQAPGKERELVAAISWGAGNTYYADSVKGRFTISRDNAKNTVYLQMNSLKPEDTAVYYCAAEDDWSEYDYWGQGTQVTVSS
Completion: high polyreactivity

Prompt: # lookup: polyreactivity (PSR sort gate) of QVQLEESGGGLVQAGGSLRLSCAASGSTFKLYTMGWYRQAPGKEREFVATITSGGRTNYADSVKGRFTISRDNAKNTVYLQMNSLKPEDTAVYYCAATWLRVKYRFKGYDYWGQGTQVTVSS
Completion: high polyreactivity

Prompt: # lookup: polyreactivity (PSR sort gate) of QVQLVESGGGLVQAGGSLSLSCAASGFTFSWNAMGWYSQAPGKERELVATITRSGSTYYADSVKGRFTISRDNSKNTVYLQMNSLKPEDTAVYYCAVVSWYRYSRYVNDYWGQGTQVTVSS
Completion: high polyreactivity

Prompt: # lookup: polyreactivity (PSR sort gate) of QVHLVESGGGLVQAGGSLRLSCAASGFTFSSNAMGWYRQAPGKERELVAAIRSGGTTKYADSVKGRFTISRDNAKNTLYLQMNSLKPEDTAVYYCAARIRDLAGYYYWGQGTQVTVSS
Completion: high polyreactivity

Prompt: # lookup: polyreactivity (PSR sort gate) of QVQLVESGGGLVQAGGSLRLSCAASGSTFPVYAMGWYRQAPGKERELVAAISRSGASTYYADSVKGRFTISRDNAKNTVYLQMNSLKPEDTAVYYCARGYQGRLKYEYWGQGTQVTVSS
Completion: low polyreactivity

***
Prompt: # lookup: polyreactivity (PSR sort gate) of QVQLVESGGGLVQAGGSLRLSCAASGSTLGYYAMGWYRQAPGKERELVAAIRYSDGNTYYADSVKGRFTISRDNAKNTVYLQMNSLKPEDTAVYYCAARRGRSFRGVFYPFEYWGQGTQVTVSS
Completion: high polyreactivity

Prompt: # lookup: polyreactivity (PSR sort gate) of QVQLVESGGGLVQAGGSLRLRCAASGLTFTGNAMGWYRQAPGKEREFVAAIRWSAGSTYYADSVKARFTISRDNAKNTVYLHMNSLKPEDTAVYYCKAALNVSGHYTNDSWGQGTQVTLSS
Completion: low polyreactivity

Prompt: # lookup: polyreactivity (PSR sort gate) of QVHIVESGGGLVQAGGSLRLSSAASGRIFYRYAMGWYRQAPGKERELVAAISRRGGSTYYADSVKGRFTISRDNAKNTVYLQMNSLKPEDTAVYYCNVYRSAFSYDSWGQGTQVTVSS
Completion: high polyreactivity

Prompt: # lookup: polyreactivity (PSR sort gate) of QVQLVESGGGLVQAGGSLRLSCAASGLILYWYAMGWYRQAPGKERELVAAISISGGSTYYADSVKGRFTISRDNAKNTVYLQMNSLKPEDTAVYYCAAVYFYSWEGDGDYWGQGTQVTVSS
Completion: low polyreactivity

Prompt: # lookup: polyreactivity (PSR sort gate) of QVQLVESGGGLVQAGGSLRLSCAASGSTFYGYAMGGNRQAPGKERELVAAMTWGGASTYYADSVKGRFTIARDNAKNTVYLQMNSLKPEDTAVYYCATVGWGYQPYPFGMDYWGQGTQVTVSS
Completion: low polyreactivity
